- ASSAYED TARGET: T1, recombinant cynomolgus IL-25 protein (cynomolgus monkey, UniProt Q9H293 33-177 (human entry), limits assumed)
- T1 construct: Bought (Sino Biological Inc, customized order); also called cyno IL-25
- T1 chain: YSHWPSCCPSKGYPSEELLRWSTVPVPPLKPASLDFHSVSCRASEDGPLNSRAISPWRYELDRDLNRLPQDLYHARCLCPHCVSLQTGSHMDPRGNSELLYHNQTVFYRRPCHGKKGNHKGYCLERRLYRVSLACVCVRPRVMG
- ASSAY METHOD TEXT: ELISA, IL-25 coated, goat anti-human kappa light chain-HRP detection
Answer each item with its documented pEC50.
One number for each entry, as −log10 of the molar value.

>>> measured_value("IL25Ab7 (antibody, IgG1, V domains shown) VH: QVQLVQSGAEVKKPGASVKVSCKASGYSFTGYTMNWVRQAPGQGLEWMGLINPDNGGTSYKQKFQGRVTMTVDKSISTAYMELSRLRSDDTAVYYCAREGYYGPSPFHHYAMDYWGQGTLVTVSS VL: DIQMTQSPSSLSASVGDRVTITCQASQDISNYLNWYQQKPDGTIKLLIYYTSTLHTGVPSRFSGSGSGTDYTFTISSLQPEDIATYYCQQYSKLPYTFGQGTKLEIK")
9.61
>>> measured_value("IL25Ab9 (antibody, V domains shown) VH: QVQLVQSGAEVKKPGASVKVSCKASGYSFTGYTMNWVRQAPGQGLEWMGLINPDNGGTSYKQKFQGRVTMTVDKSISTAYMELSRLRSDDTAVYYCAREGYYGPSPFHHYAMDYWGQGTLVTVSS VL: DIQMTQSPSSLSASVGDRVTITCQASQDISNYLNWYQQKPGKAPKLLIYYTSTLHTGVPSRFSGSGSGTDYTFTISSLQPEDIATYYCQQYSKLPYTFGQGTKLEIK")
9.65
>>> measured_value("IL25Ab8 (antibody, IgG1, V domains shown) VH: QVQLVQSGAEVKKPGASVKVSCKASGYSFTGYTMNWVRQAHGKNLEWMGLINPDNGGTSHKQKFQGRVTMTVDKSISTAYMELSRLRSDDTAVYYCAREGYYGPSPFHHYAMDYWGQGTLVTVSS VL: DIQMTQSPSSLSASVGDRVTITCQASQDISNYLNWYQQKPDGTIKLLIYYTSTLHTGVPSRFSGSGSGTDYTLTISSLQPEDIATYYCQQYSKLPYTFGGGTKLEIK")
9.53

Give measured pEC50 for every item shown.
1. IL25Ab6 (antibody, V domains shown) VH: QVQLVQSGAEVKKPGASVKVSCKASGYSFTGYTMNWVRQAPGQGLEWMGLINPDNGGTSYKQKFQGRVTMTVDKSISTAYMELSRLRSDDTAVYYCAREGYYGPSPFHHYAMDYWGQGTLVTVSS VL: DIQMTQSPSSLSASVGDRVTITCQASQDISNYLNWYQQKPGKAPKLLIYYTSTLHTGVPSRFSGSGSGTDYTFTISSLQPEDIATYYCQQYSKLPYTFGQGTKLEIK
2. IL25Ab11 (antibody, IgG1, V domains shown) VH: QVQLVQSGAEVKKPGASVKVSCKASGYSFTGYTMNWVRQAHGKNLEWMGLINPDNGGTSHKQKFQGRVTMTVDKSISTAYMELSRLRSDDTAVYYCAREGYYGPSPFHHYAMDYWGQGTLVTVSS VL: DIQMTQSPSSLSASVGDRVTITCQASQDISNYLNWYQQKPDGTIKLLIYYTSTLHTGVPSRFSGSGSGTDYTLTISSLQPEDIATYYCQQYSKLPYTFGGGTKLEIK

Result:
9.62
9.62

Ask: Give reported pEC50 value for IL25Ab3 (antibody, V domains shown, detected with anti-human IgG or anti-human kappa reagents; also called anti-IL-25Ab3; mouse origin of anti-IL-25 specific antibody) VH: EVQLQQSGPELVKPGGSVRISCKASGYSFTGYTMNWVKQSHGKNLEWIGLINPDNGGTSHKQRFMGKATLTVDKSSSTAYMELLSLTSEDSAVYYCAREGYYGPSPFHHYAMDYWGQGTSVTVSS VL: DIQMTQTTSSLSASLGDRVTISCSASQDISNYLNWYQQKPDGTIKLLIYYTSTLHSGVPSRFSGSGSGTDYSLTISNLEPEDIATYYCQQYSKLPYTFGGGTKLEIK
Result: 9.44
